tested on: Vero cells; details: African green monkey
Each item that follows carries a reported CC50.
Write the answer as a number in µM, unit excluded.

Reported CC50, compound COc1cc(NC(C(=O)N2CCc3ccc(OC(F)(F)F)cc32)c2ccc(Cl)cc2OCCC(C)(C)C(=O)O)cc(-n2cncn2)c1 (single isomer, unassigned) [Compound 14B] : ____
9.4

====

Form field: CC50 (one value per entry).
test system: Vero cells; conditions: African green monkey
State the result as a value with its unit after it.

// solved cases for CC50 follow
Bench note: what CC50 did COc1cc(NC(C(=O)N2CCc3ccc(OC(F)(F)F)cc32)c2ccc(Cl)cc2OCCO)cc(-n2cncn2)c1 (single isomer, unassigned) [Compound 6B] show?
7.3 µM

And the next one, COc1cc(NC(C(=O)N2CCc3cc(F)c(OC(F)(F)F)cc32)c2ccc(Cl)cc2OCCO)cc(-n2cncn2)c1 (single isomer, unassigned) [Compound 9A] ?
4.2 µM

Now the compound COc1cc(NC(C(=O)N2CCc3cc(OC)c(C(F)(F)F)cc32)c2ccc(F)cc2OCCO)cc(-n2cncn2)c1 (single isomer, unassigned) [Compound 2B]
10 µM

How about this compound: COc1cc(NC(C(=O)N2CCc3ccc(C(F)(F)F)cc32)c2ccc(Cl)cc2OCCCC(=O)O)cc(-n2cncn2)c1 (single isomer, unassigned) [Compound 11B]
12 µM

New cases:
What does the record list as CC50 for COc1cc(NC(C(=O)N2CCc3cc(F)c(C(F)(F)F)cc32)c2ccc(Cl)cc2OCCO)cc(-n2cncn2)c1 (single isomer, unassigned) [Compound 7B] ?
7.6 µM

Continue with COc1cc(NC(C(=O)N2CCc3cc(F)c(OC(F)(F)F)cc32)c2ccc(Cl)cc2OCCO)cc(-n2cncn2)c1 (single isomer, unassigned) [Compound 9B]
10 µM

Note, next up: COc1cc(NC(C(=O)N2CCc3ccc(OC(F)(F)F)cc32)c2ccc(Cl)cc2OCCCC(=O)O)cc(-n2cncn2)c1 (single isomer, unassigned) [Compound 13B]
12 µM

====

tested on: DENV-2 16681 strain; assay: DENV-2 antiviral assay (eGFP fluorescence, Vero cells); type: cell-based, Dengue virus; conditions: DENV-2 16681 eGFP, MOI 0.5, 3 days
observation.type: EC50 (nM)
A number alone suffices; assume nM.

# query: EC50 of entry COc1cc(NC(C(=O)N2CCc3cc(F)c(OC(F)(F)F)cc32)c2ccc(Cl)cc2OCCCC(=O)O)cc(-n2cncn2)c1 (single isomer, unassigned) [Compound 15B]
0.13

And for COc1cc(NC(C(=O)N2CCc3cc(OC)c(C(F)(F)F)cc32)c2ccc(F)cc2OCCO)cc(-n2cncn2)c1 (single isomer, unassigned) [Compound 2B] ?
1.8

# iterate: COc1cc(NC(C(=O)N2CCc3ccc(C(F)(F)F)cc32)c2ccc(Cl)cc2OCCCC(=O)O)cc(-n2cncn2)c1 (single isomer, unassigned) [Compound 11A]
45

Can you check COc1cc(NC(C(=O)N2CCc3ccc(OC(F)(F)F)cc32)c2ccc(F)cc2OCCO)cc(-n2cncn2)c1 (single isomer, unassigned) [Compound 3B] next?
0.99

And the next one, COc1cc(NC(C(=O)N2CCc3c(C)cc(OC(F)(F)F)cc32)c2ccc(Cl)cc2OCCCC(=O)O)cc(-n2cncn2)c1 (single isomer, unassigned) [Compound 16A] ?
14

***
Report EC50 for COc1cc(NC(C(=O)N2CCc3cc(OC)c(C(F)(F)F)cc32)c2ccc(Cl)cc2OCCO)cc(-n2cncn2)c1 (single isomer, unassigned) [Compound 5B] please.
0.62

Okay, and COc1cc(NC(C(=O)N2CCc3ccc(C(F)(F)F)cc32)c2ccc(Cl)cc2OCCO)cc(-n2cncn2)c1 (single isomer, unassigned) [Compound 4B] ?
1

Again, but for COc1cc(NC(C(=O)N2CCc3ccc(OC(F)(F)F)cc32)c2ccc(Cl)cc2OCCCC(=O)O)cc(-n2cncn2)c1 (single isomer, unassigned) [Compound 13B]
12

What do you get for COc1cc(NC(C(=O)N2CCc3c(C)cc(OC(F)(F)F)cc32)c2ccc(Cl)cc2OCCO)cc(-n2cncn2)c1 (single isomer, unassigned) [Compound 10B] ?
0.25

# iterate: COc1cc(NC(C(=O)N2CCc3cc(OC)c(OC(F)(F)F)cc32)c2ccc(Cl)cc2OCCO)cc(-n2cncn2)c1 (single isomer, unassigned) [Compound 8A]
1.5

What would you report for COc1cc(NC(C(=O)N2CCc3ccc(OC(F)(F)F)cc32)c2ccc(F)cc2OCCO)cc(-n2cncn2)c1 (single isomer, unassigned) [Compound 3A] ?
520

And the next one, COc1cc(NC(C(=O)N2CCc3ccc(OC(F)(F)F)cc32)c2ccc(Cl)cc2OCCC(C)(C)C(=O)O)cc(-n2cncn2)c1 (single isomer, unassigned) [Compound 14B] ?
0.27
